Ref: patent US9096601B2

- Target Entity: c-SRC (Homo sapiens (Human))
- Sequence (P12931 whole entry, looked up): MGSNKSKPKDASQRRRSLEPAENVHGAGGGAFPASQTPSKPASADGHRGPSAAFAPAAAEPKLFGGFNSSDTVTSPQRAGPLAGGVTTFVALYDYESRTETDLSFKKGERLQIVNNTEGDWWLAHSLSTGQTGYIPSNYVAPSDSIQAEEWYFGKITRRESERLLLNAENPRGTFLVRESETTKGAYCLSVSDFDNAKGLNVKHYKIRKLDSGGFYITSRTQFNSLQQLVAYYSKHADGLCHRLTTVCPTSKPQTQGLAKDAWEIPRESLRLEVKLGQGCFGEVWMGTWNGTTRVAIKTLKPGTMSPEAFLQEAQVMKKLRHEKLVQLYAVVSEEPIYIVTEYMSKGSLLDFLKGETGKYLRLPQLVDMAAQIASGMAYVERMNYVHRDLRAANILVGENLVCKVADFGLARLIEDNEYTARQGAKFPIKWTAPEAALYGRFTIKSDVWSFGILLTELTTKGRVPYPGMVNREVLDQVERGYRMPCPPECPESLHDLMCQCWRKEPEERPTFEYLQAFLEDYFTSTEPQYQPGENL
- Assay Summary: Kinase inhibitory activity, isotopic labeling (γ-33P-ATP)
- Format: biochemical
- Reported Conditions: compound at 10 μM
- Experimental: The object of this assay was to test the inventive compounds for the kinase inhibitory activity in vitro. In this assay, an isotopic labeling method was used to label the γ phosphate group on ATP. EGFR (including wild type, L858R mutant type and L858R/T790M double mutant type), VEGFR2, ALK, BTK, c-KIT, c-SRC, MET, PDGFRα and FLT3 kinases were tested in vitro for the activity inhibition. Staurosporine was used as a reference molecule (or referred to as a positive control). […]
Listed below: The kinase activity inhibitory rate (%) by the tested compounds at 10 μM c-SRC values for each entry.
Reported Endpoint: The kinase activity inhibitory rate (%) by the tested compounds at 10 μM c-SRC

>>> print(df.to_string())
                                smiles_text  test_result
0  COc1cccc(Nc2nc3cnc(Nc4ccc(N5CCN(C)CC5)cc4)nc3n2C(C)C)c1          99%
1  COc1ccc(Nc2nc3cnc(Nc4ccc(N5CCN(C)CC5)cc4)nc3n2C(C)C)cc1          93%
2  CC(C)n1c(NC2CCCCC2)nc2cnc(Nc3ccc(N4CCN(C)CC4)cc3)nc21          67%
3  CC(C)n1c(Nc2cccnc2)nc2cnc(Nc3ccc(N4CCN(C)CC4)cc3)nc21          97%

###

- Tested on: non-small cell lung carcinoma cell strain H1975 (EGFR L858R/T790M mutation)
- Assay Summary: In-vitro tumor cell proliferation inhibition, MTT
- Type: cell-based, human
- Reported Conditions: 72 hours
Reported Endpoint: log10 IC50 (log10 of the value in nM)

>>> df
                                smiles_text  reported_endpoint  test_result
0  c1ccc(Nc2nc3cnc(Nc4ccc(CN5CCOCC5)cc4)nc3n2C2CCCC2)cc1         log10 IC50         3.66
1  COc1cccc(Nc2nc3cnc(Nc4ccc(N5CCN(C)CC5)cc4)nc3n2C(C)C)c1         log10 IC50         3.28
2  CN1CCN(c2ccc(Nc3ncc4nc(NCc5ccccc5)n(C5CCCC5)c4n3)cc2)CC1         log10 IC50         3.06
3  CN1CCN(c2ccc(Nc3ncc4nc(Nc5cc(F)ccc5F)n(C5CCCC5)c4n3)cc2)CC1         log10 IC50         2.51
4  CC(C)n1c(Nc2cccc(C(F)(F)F)c2)nc2cnc(Nc3ccc(N4CCN(C)CC4)cc3)nc21         log10 IC50         3.26
5  CN1CCN(c2ccc(Nc3ncc4nc(Nc5cccc(O)c5)n(C5CCCC5)c4n3)cc2)CC1         log10 IC50         2.80

###

- System: chronic granulocytic leukemia cell strain K562
- Assay Summary: In-vitro tumor cell proliferation inhibition, MTT
- Type: cell-based, human
- Reported Conditions: 72 hours
Reported Endpoint: log10 of IC50 (log10 of the value in µM)

                                   compound                             target_entity  reported_endpoint  test_result
0  CC(C)n1c(Nc2ccc(Cl)nc2)nc2cnc(Nc3ccc(N4CCN(C)CC4)cc3)nc21 [Compounds 8-41]  chronic granulocytic leukemia cell strain K562      log10 of IC50        -0.84
1  CN1CCN(c2ccc(Nc3ncc4nc(Nc5ccccc5)n(C5CCCCC5)c4n3)cc2)CC1 [Compounds 8-50]  chronic granulocytic leukemia cell strain K562      log10 of IC50        -1.52
2  CC(C)n1c(Nc2ccc(F)c(Cl)c2)nc2cnc(Nc3ccc(C(=O)NN4CCN(C)CC4)cc3)nc21 [Compound 8-2]  chronic granulocytic leukemia cell strain K562      log10 of IC50         0.57
3  CC(C)n1c(Nc2ccccc2)nc2cnc(Nc3ccc(C(=O)NN4CCN(C)CC4)cc3)nc21 [Compound 8-1]  chronic granulocytic leukemia cell strain K562      log10 of IC50         0.03
4  CN1CCN(c2ccc(Nc3ncc4nc(Nc5ccc(Br)cc5)n(C5CCCC5)c4n3)cc2)CC1 [Compounds 8-43]  chronic granulocytic leukemia cell strain K562      log10 of IC50        -0.91
